- Target Entity: T1, IL-18 receptor (IL-18Rαβ) on cells (UniProt Q13478 19-541; O95256 20-599, limits assumed)
- T1 sequence (looked up) 1: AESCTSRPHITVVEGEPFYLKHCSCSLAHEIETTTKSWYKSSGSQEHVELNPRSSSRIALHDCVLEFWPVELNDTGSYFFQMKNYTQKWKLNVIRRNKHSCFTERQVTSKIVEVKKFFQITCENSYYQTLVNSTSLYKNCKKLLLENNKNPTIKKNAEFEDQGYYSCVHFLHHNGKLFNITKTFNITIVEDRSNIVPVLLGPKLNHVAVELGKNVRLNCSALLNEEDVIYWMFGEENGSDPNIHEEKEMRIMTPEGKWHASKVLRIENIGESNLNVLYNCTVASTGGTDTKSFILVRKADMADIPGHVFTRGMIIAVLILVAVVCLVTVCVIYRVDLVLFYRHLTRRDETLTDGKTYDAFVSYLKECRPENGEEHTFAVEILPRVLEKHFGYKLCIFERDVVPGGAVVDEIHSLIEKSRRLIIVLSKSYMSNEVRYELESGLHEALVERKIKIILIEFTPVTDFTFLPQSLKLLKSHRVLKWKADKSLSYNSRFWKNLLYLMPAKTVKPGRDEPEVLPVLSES
- T1 sequence (looked up) 2: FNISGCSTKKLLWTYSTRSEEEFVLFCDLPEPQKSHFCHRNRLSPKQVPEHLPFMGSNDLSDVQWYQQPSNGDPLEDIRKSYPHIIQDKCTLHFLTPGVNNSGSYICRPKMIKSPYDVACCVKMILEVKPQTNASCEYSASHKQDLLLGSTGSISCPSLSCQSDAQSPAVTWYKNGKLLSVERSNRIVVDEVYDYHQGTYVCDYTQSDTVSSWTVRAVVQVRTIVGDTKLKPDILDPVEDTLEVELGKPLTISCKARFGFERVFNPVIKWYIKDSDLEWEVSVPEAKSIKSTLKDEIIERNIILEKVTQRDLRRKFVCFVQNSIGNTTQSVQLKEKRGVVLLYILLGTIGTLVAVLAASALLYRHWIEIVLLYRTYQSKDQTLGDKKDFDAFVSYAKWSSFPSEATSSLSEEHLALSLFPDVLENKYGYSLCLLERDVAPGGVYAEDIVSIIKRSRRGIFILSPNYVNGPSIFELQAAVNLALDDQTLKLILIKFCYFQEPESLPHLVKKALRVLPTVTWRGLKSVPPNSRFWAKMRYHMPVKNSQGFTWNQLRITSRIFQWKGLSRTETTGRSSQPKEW
- Test Details: cell-based or functional assay
Known HEK-blue EC50 of a selection of binders
Supply the numeric figure in nM, leaving out any unit text.

[[record]]
binder = "C127 (Propeptide-LinkerX-C086; SEQ ID NO: 69) (ligand) MAAEPVEDNCINFVAMKFIDNTLYFIAEDDENLESDSGGPGPAGMKGLPGSYFGKLKSKLSIIRNLNDQVLFIDQGNRPLFEDMTDSDARDNAPRTIFIISMYADSQPRGMAVAISVKCEKISTLSAENKIISFKEMNPPDNIKDTKSDIIFFQRSVPGHDNKMQFESSSYEGYFLAAEKERDLFKLILKKEDELGDRSIMFTVQNED"
recorded_value = 295

[[record]]
binder = "C086 (SEQ ID NO: 30; E6K, V11I, C38A, K53A, T63A, C76A, C127A) (ligand) YFGKLKSKLSIIRNLNDQVLFIDQGNRPLFEDMTDSDARDNAPRTIFIISMYADSQPRGMAVAISVKCEKISTLSAENKIISFKEMNPPDNIKDTKSDIIFFQRSVPGHDNKMQFESSSYEGYFLAAEKERDLFKLILKKEDELGDRSIMFTVQNED"
recorded_value = 0.04

[[record]]
binder = "C172 (C086-LinkerX-IL-18Rα D3-His6; SEQ ID NO: 73) (ligand) YFGKLKSKLSIIRNLNDQVLFIDQGNRPLFEDMTDSDARDNAPRTIFIISMYADSQPRGMAVAISVKCEKISTLSAENKIISFKEMNPPDNIKDTKSDIIFFQRSVPGHDNKMQFESSSYEGYFLAAEKERDLFKLILKKEDELGDRSIMFTVQNESGGPGPAGMKGLPGSNIVPVLLGPKLNHVAVELGKNVRLNCSALLNEEDVIYWMFGEENGSDPNIHEEKEMRIMTPEGKWHASKVLRIENIGESNLNVLYNCTVASTGGTDTKSFILVRKADHHHHHH"
recorded_value = 1.09


// query Query: HEK-blue EC50; subject: C190 (Propeptide-C086, non-cleavable control; SEQ ID NO: 68) (ligand) MAAEPVEDNCINFVAMKFIDNTLYFIAEDDENLESDYFGKLKSKLSIIRNLNDQVLFIDQGNRPLFEDMTDSDARDNAPRTIFIISMYADSQPRGMAVAISVKCEKISTLSAENKIISFKEMNPPDNIKDTKSDIIFFQRSVPGHDNKMQFESSSYEGYFLAAEKERDLFKLILKKEDELGDRSIMFTVQNED
// result 404

// query Query: HEK-blue EC50; subject: C191 (C086-PLGLAG linker-IL-18Rα D3-His6; SEQ ID NO: 76) (ligand) YFGKLKSKLSIIRNLNDQVLFIDQGNRPLFEDMTDSDARDNAPRTIFIISMYADSQPRGMAVAISVKCEKISTLSAENKIISFKEMNPPDNIKDTKSDIIFFQRSVPGHDNKMQFESSSYEGYFLAAEKERDLFKLILKKEDELGDRSIMFTVQNESGGPLGLAGGSNIVPVLLGPKLNHVAVELGKNVRLNCSALLNEEDVIYWMFGEENGSDPNIHEEKEMRIMTPEGKWHASKVLRIENIGESNLNVLYNCTVASTGGTDTKSFILVRKADHHHHHH
// result 2.02

// query Query: HEK-blue EC50; subject: C187 (Propeptide-PLGLAG-C086; SEQ ID NO: 72) (ligand) MAAEPVEDNCINFVAMKFIDNTLYFIAEDDENLESDPLGLAGYFGKLKSKLSIIRNLNDQVLFIDQGNRPLFEDMTDSDARDNAPRTIFIISMYADSQPRGMAVAISVKCEKISTLSAENKIISFKEMNPPDNIKDTKSDIIFFQRSVPGHDNKMQFESSSYEGYFLAAEKERDLFKLILKKEDELGDRSIMFTVQNED
// result 1240
